# Species: Xenopus laevis
# PROTOCOL_TEXT: Effect of compound (20 uM) on maxi-K-mediated outward current in Xenopus laevis oocytes expressing the cloned hSlo maxi-K channels was determined
# Type: functional
condition met if Increase is below 200%. condition not met if not; exact matches included in condition not met.

Query :: Quick check: does COc1ccc(Cl)cc1-c1c(CO)c(O)nc2ccc(C(F)(F)F)cc12 have Increase under 200%?
Result :: condition met

Query :: Quick check: does OCCCc1c(O)nc2ccc(C(F)(F)F)cc2c1-c1cc(Cl)ccc1O have Increase under 200%?
Result :: condition not met

Query :: Quick check: does O=c1[nH]c2ccc(C(F)(F)F)cc2c(-c2cc(Cl)ccc2O)c1CCO have Increase under 200%?
Result :: condition not met

Query :: Quick check: does COc1ccc(Cl)cc1-c1c(CCO)c(O)nc2ccc(C(F)(F)F)cc12 have Increase under 200%?
Result :: condition not met

Query :: Quick check: does COc1ccc(Cl)cc1-c1c(CCCO)c(O)nc2ccc(C(F)(F)F)cc12 have Increase under 200%?
Result :: condition not met

Query :: Quick check: does O=c1[nH]c2cc(C(F)(F)F)ccc2n1-c1cc(Cl)ccc1O have Increase under 200%?
Result :: condition met

Query :: Quick check: does COc1ccc(Cl)cc1-c1c(/C=C/CO)c(O)nc2ccc(C(F)(F)F)cc12 have Increase under 200%?
Result :: condition not met

Query :: Quick check: does OC/C=C/c1c(O)nc2ccc(C(F)(F)F)cc2c1-c1cc(Cl)ccc1O have Increase under 200%?
Result :: condition not met

Where do these numbers come from? They come from ChEMBL document CHEMBL1145822.
